The values you see were collected from patent US20180016324A1.

# STUDY TARGET: ZIKV envelope glycoprotein (E) of strain PRVABC59 (Puerto Rico 2015) (Zika virus)
# TEST NAME: cell-based or functional assay
Assign class by neutralization IC50, Vero cells: not lower than 500 pM means true (1); lower than 500 pM means false (0).

Given the entry H4H25630P (antibody, V domains shown) VH: QVQLVQSGAEVKRPGASVKVSCKASDYTFTDYGISWVRQAPGQGLEWMGWFNTYNGNTNYAQKFQGRITMTTDTSTSTAYMELRSLRSDDTAIYYCARDWGLHYFENWGQGTLVTVSS VL: EIVLTQSPGTLSLSPGERATLSCRASQSVRNSYLAWYQQKPGQAPRLLIYGASSRDTGIPDRFSGSGSGTDFTLTISRLEPEDFAVYYCQQYGRSPWTFGQGTKVEIK , answer whether its neutralization IC50, Vero cells meets or surpasses 500 pM.
true (1)

hey, is neutralization IC50, Vero cells for this one >= 500 pM? H4H25619P (antibody, V domains shown) VH: QVQLVESGGGVVQPGRSLRLSCTASGFTFSTYGMHWVRHVPGKGLEWVAIVWYDGSDKSYAASVKGRFTISRDNSKNTLFLQMNSLRAEDTAVYYCARQGTYYYYGMDVWGQGTTVTVSS VL: DIQMTQSPSSLSASVGDRVTITCRSSQTITNYLNWYQQRPGKAPKLLIYAASSLQSGVPSRFSGSGSGTDFTLTISSLQPEDFATYYCQQSYSTPPITFGQGTKLEIKR
true (1)

Tell me whether neutralization IC50, Vero cells is at least 500 pM here: H4H25704N (antibody, V domains shown) VH: QVQLVESGGGVVQSGRSLRLSCAASGFTFIYYGMHWVRQAPGKGLEWVAVISYDGSDRYYADSVKGRFTISRDDSKNTLYLQMNSLRPEDTAVYYCAKDRGGRFDYWGQGTLVTVSS VL: EIVLTQSPGTLSLSPGERATLSCRASQSVNNNYLAWYQQKPGQAPRLLIYGASSRATGIPDRFGGGGSGTDFTLTISRLEPEDFAVYYCQRYGNSPLTFGGGTKVEIK
false (0)

Identify whether the reported neutralization IC50, Vero cells of the following binder is 500 pM or greater: H4H25637P (antibody, V domains shown) VH: QLQLQESGPGLVKPSETLSLTCTVSGDSISSSNYFWGWIRQPPGKGLEWIGNIYYSGDTYYNPSLKSRVTMSVDTSKKQFSLKLRSVTAADTAVYYCARGRPYYDFWSGYFDYWGQGTLVTVSS VL: EIVLTQSPGTLSLSPGERATLPCRASQSVSSSYLAWYQQKPGQAPRLLIYGASSRATGIPDRFRGSGSGTDFTLTISRLEPEDFAVYYCQQYGTAPWTFGQGTKVEIK
false (0)

Entry H4H25598P (antibody, V domains shown) VH: EVQLVESGGGLVQPGGSLRLSCAASGFTVSSNYMSWVRQAPGSGLEWVSVIYSGGITHYIGSVKGRFTISRHNSKNTLYLQMNSLRAEDTAMYYCARERYSGITGNPYGFDFWGQGTMVTVSS VL: DIQLTQSPSFLSASVGDRVTITCWASQDISSYLAWYQQKPGIAPKLLIYSASTLQSGVPSSFSGSGSGTEFTLTISSLQPEDFATYYCQQLNIYPFTFGPGTKVDIK : is its neutralization IC50, Vero cells no less than 500 pM?
false (0)

Does neutralization IC50, Vero cells meet or surpass 500 pM for H4H25640P (antibody, V domains shown) VH: QVQLVESGGGVVQPGRSLRLSCAASGFTFSYYGMHWVRQAPGKGLEWVAVILYDGSNKFYSDSVKGRFTISRDNSRNTLYLQMNSLRLEDTAVYYCAKDYGGRFDYWGQGTLVTVSS VL: EIVLTQSPGTLSLSSGERATLSCRASQSVSNKYLAWYQQKPGQVPRLLIYGASNRATGIPDRFSGSGSGTDFTLTINRLEPEDFAVFYCQQYGSTPSTFGQGTKVEIK ?
false (0)

Textbook exercise: given the entry H4H25710N (antibody, V domains shown) VH: EVQLLESGGGLVQPGGSLRLSCAASGFTVSNNYMSWVRQAPGKGLEWVSVIYSGGRTNYGDSVKGRFTISRDNSKNTLYLQMNSLRAEDTAVYYCARENYDFWSGDPYGWDVWGQGTTVTVSS VL: DIQMTQSPSSLSASVGDRVTITCRASQDISNYLAWFQQKPGKAPKSLIYGASSLQRGVPSKFRGSGSGTDFTLTISSLQPEDFASYYCQQYNSYPYTFGQGTKLEIK , state whether its neutralization IC50, Vero cells is greater than or equal to 500 pM.
true (1)
